Numbers sourced from ChEMBL document CHEMBL3779879.

tested on: Escherichia coli; assay: Antibacterial activity against Escherichia coli expressing APH(3')-Ib; format: functional
Each record here notes measured MIC.

Worked cases, MIC given:
# Compound, MIC
rows = [
    ("NC[C@H]1O[C@@H](O[C@H]2[C@@H](O)[C@H](O[C@@H]3[C@@H](O)[C@H](N)C[C@H](N)[C@H]3O[C@@H]3OC(CO)=CC[C@@H]3N)O[C@@H]2CO)[C@@H](N)[C@H](O)[C@H]1O (stereo in doubt)", "> 64 µg/mL"),
    ("NCC1=CC[C@@H](N)[C@@H](O[C@H]2[C@H](O[C@@H]3O[C@H](CO)[C@@H](O)[C@H]3O)[C@@H](O)[C@H](N)C[C@@H]2N)O1", "64 µg/mL"),
    ("N[C@@H]1CC=C(CO)O[C@@H]1O[C@H]1[C@H](O[C@@H]2O[C@H](CO)[C@@H](O)[C@H]2O)[C@@H](O)[C@H](N)C[C@@H]1N", "> 64 µg/mL"),
    ("NCC1=CC[C@H](N)[C@H](O[C@H]2[C@H](O[C@@H]3O[C@H](CO)[C@@H](O[C@@H]4O[C@H](CN)[C@H](O)[C@@H](O)[C@@H]4N)[C@H]3O)[C@@H](O)[C@H](N)C[C@@H]2N)O1 (stereo in doubt)", "> 64 µg/mL"),
]

Query: MIC for NC[C@H]1O[C@H](O[C@H]2[C@H](O[C@@H]3O[C@H](CO)[C@@H](O)[C@H]3O)[C@@H](O)[C@H](N)C[C@@H]2N)[C@H](N)[C@@H](O)[C@@H]1O [RIBOSTAMYCIN] ?
Reply: > 64 µg/mL

Query: What MIC value was documented for this compound, NCC[C@H](O)C(=O)N[C@@H]1C[C@H](N)[C@@H](O[C@H]2O[C@H](CN)[C@@H](O)[C@H](O)[C@H]2O)[C@H](O)[C@H]1O[C@H]1O[C@H](CO)[C@@H](O)[C@H](N)[C@H]1O [AMIKACIN] ?
Reply: 0.5 µg/mL

* * *

Reported MIC values for the following molecules.
tested on: Escherichia coli; assay: Antibacterial activity against Escherichia coli expressing A-site methyltransferase ArmA; format: functional
Could you give me the number in µg/mL? Just the number is fine.

Sample answers from the record:
# Structure string, Measured target, Unit, MIC
records = [
    ("NCC[C@H](O)C(=O)N[C@@H]1C[C@H](N)[C@@H](O[C@H]2OC(CN)=CC[C@H]2N)[C@H](O[C@@H]2O[C@H](CO)[C@@H](O[C@@H]3O[C@H](CN)[C@H](O)[C@@H](O)[C@@H]3N)[C@H]2O)[C@H]1O", "Escherichia coli", "µg/mL", 1),
    ("NCC1=CC[C@@H](N)[C@@H](O[C@H]2[C@H](O[C@@H]3O[C@H](CO)[C@@H](O)[C@H]3O)[C@@H](O)[C@H](N)C[C@@H]2N)O1", "Escherichia coli", "µg/mL", 64),
]

Query: Fill in: MIC of NC[C@H]1O[C@H](O[C@H]2[C@H](O[C@@H]3O[C@H](CO)[C@@H](O)[C@H]3O)[C@@H](O)[C@H](N)C[C@@H]2N)[C@H](N)[C@@H](O)[C@@H]1O is ___
Reply: 8

Query: I'd like to know its MIC. The molecule in question is NCC[C@H](O)C(=O)N[C@@H]1C[C@H](N)[C@@H](O[C@H]2O[C@H](CN)[C@@H](O)[C@H](O)[C@H]2N)[C@H](O[C@@H]2O[C@H](CO)[C@@H](O)[C@H]2O)[C@H]1O
Reply: 2
